Exercise: state measured sfGFP reporter fluorescence for each of the variants provided.
B1: library; numbered along this chain (parent)
chain: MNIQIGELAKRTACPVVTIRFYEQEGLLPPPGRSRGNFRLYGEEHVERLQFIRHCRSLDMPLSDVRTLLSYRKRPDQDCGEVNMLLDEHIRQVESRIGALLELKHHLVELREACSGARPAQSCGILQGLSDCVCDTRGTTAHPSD

- Variants of: B1
- protocol.details: sfGFP reporter fluorescence (15 h) (µM FITC); higher = stronger transcriptional activation
- experimental.conditions: library round: Round 1; ligand: 30 µM Zn
Numbers only.

query.sequence	sfGFP reporter fluorescence
MNIQIGELAKRTACPVVTIRFYEQEGLLPPPGRSRFNFRLYGEEHVERLQFIRHCRSLDLNLSDVRTLLSYRKRPDQDCGEVNMLLDEHIRQVESRIGALLELKHHLVELREACSGARPAQSCGILQGLSDCVCDTRGTTAHPSD [G36F M60L P61N]	0.143
MNIQIGELAKRTACPVVTIRFYEQEGLLPPPGRSRGNFRLYGEEHVERLQFIRHCRSLDLPLSKVRTLLSYRKRPDQDCGEVNMLLDEHIRQVESRIGALLELKHHLVELREACSGARPAQSCGILQGLSDCVCDTRGTTAHASD [M60L D64K P143A]	2.4
MNIQIGELAKRTACPVVTIRFYEQEGLLPPPGRSRGNFRLYGEEHVERLQFIRHCRSLDMPLSTVRTLLSYRKRPDQDCGEVNMLLDEHIRQVESRIGALLELKHHLVELREACSGARPAQSCGILQGLSCCVCDTRGTTAHPSD [D64T D131C]	1.51
MNIQIGELAKRTACPVVTIRFYEQEGLLPPPGRSRGNFRLYGEEHVERLQFIRHCRSLDMPLSDVRTLLSYRKRPDQDCGEVNMLLDEHIRQVESRIGALLELKHHIVELREACSGARPAQSCGILQGLSDCVCDTRGTTAHRSD [L107I P143R]	0.473
MNIQIGELAKRTACPVVTIRFYEQEGLLPPPGRSRGNFRLYGEEHVERLQFIRHCRSLDMNLSDVRTLLSYRKRPDQDCGEVNMLLDEHIRQVESAIGALLELKHHLVELREACSGARPAQSCGILQGLSDCVCDTRGTTAHPSD [P61N R96A]	0.238

Please report sfGFP reporter fluorescence for every entry that follows.
1. MNIQIGELAKRTACPCVTIRFYEQEGLLPPPGRSRGNFRLYGEEHCERLQFIRHCRSLDMPLSDVRTLLSYRKRPDQDCGEVNMLLDEHIRQVESRIGALLELKHHLVELREACSGARPAQSCGILQGLSDCVCDTRGTTAHPSD [V16C V46C]
2. MNIQIGELAKRTACPCVTIRFYEQEGLLPPPGRSRGNFRLYGEEHYERLQFIRHCRSLDMPLSDVRTLLSYRKRPDQDCGEVNMLLDEHIRQVESRIGALLELKHHLVELREACSGARPAQSCGILQGLSDCVCDTRGTTAHPSD [V16C V46Y]
3. MNIQIGELAKRTACPVVTIRFYEQEGLLPPPGRSRGNFRLYGEEHVERLQFIRHCRSLDMPLSDVRTLLSYRKRPDQDCGEVTMLLDEHIRQVESRIGALLELKHHCVELREACSGARPAQSCGILQILSDCVCDTRGTTAHPSD [N83T L107C G128I]

0.0632
0.0793
1.75
